# experiment.notes: Tissue distribution after single oral dose
# Type: in vivo, mice
# run.parameters: KM, mouse, kidney; 8 h; oral 500 mg·kg^−1, female mice; read-out: Concentration in Kidney
observation.type: concentration at 8 h (ng/g)
The figure you give is taken to be in ng/g; do not add the unit.

# input For the compound shown here, CC(C)=C/C=C/[C@H](C)[C@H]1CC[C@]2(C)C[C@@H]3C(C)=CC(=O)[C@H]3/C(C=O)=C\C[C@@H]12 [MHO7, 6-epi-ophiobolin G] , give the reported concentration at 8 h.
# output 1660

----------
# experiment.notes: Tissue distribution after single oral dose
# Assay type: in vivo, mice
# run.parameters: KM, mouse, brain; 20 h; oral 500 mg·kg^−1, female mice; read-out: Concentration in Brain
# Procedure: The animals and treatment methods were the same as in the pharmacokinetic studies. Afterwards, the biological samples (n = 6 per group) were collected at 1, 4, 8, 12, 20, and 30 h, and the tissues including heart, liver, spleen, lung, kidney, stomach, intestine, brain, muscle (hind limb), fat (white adipose tissue ), reproductive organs (uterus, fallopian tube and ovary) stomach and its contents, and intestine and its contents, and the blood samples were simultaneously collected. […]
observation.type: concentration at 20 h (ng/g)
Quick reminder: number only, in ng/g, skip the unit.

# input I'd like to know its concentration at 20 h. The compound in question is CC(C)=C/C=C/[C@H](C)[C@H]1CC[C@]2(C)C[C@@H]3C(C)=CC(=O)[C@H]3/C(C=O)=C\C[C@@H]12 [MHO7, 6-epi-ophiobolin G]
# output 100
